B1: VH:VL chains; a variant is named by its letters at X, in order (parent)
chain 1: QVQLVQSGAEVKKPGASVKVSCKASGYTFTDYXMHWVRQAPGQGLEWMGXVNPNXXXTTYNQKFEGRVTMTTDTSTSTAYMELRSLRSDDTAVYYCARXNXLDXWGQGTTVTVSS
chain 2: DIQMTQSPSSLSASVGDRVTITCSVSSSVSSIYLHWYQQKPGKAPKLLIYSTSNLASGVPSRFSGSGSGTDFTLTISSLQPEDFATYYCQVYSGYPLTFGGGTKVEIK

# Variants of: B1
# Procedure details: yeast display scFab, FACS + sequencing
# Cond: with MET
The list shows a part of the results. The true hit rate is not given.
Outcome measure: antigen binding call

1. VKGRADSV | no binding
2. VKKEDDVV | no binding
3. YKGGGAGA | binds
4. YKGEADGA | no binding
5. VETGNDGV | no binding
6. VKGGGFGA | no binding
7. YRRRGFVA | binds
8. VARETDVA | no binding
9. YTGATAGA | no binding
10. DEARGAGD | no binding

Q. // antigen binding call lookup, key: YKGGSAGA
A. binds
